FYI, the data here is from paper PMC6424611.

- SUBJECT_OF_TEST: T1, MBP-fused PDZ domain of SNTA1 (human, UniProt Q13424 87-170)
- T1 sequence (looked up): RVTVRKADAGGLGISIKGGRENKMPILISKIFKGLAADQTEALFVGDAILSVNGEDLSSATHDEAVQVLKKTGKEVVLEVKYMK
- ASSAY_TEXT: fluorescence polarisation
QUANTITY: Kd (µM)
# output: bare number, implied unit µM

Returns the measured Kd for the input binder. Input: RSK1 683-735 peptide, unphosphorylated (peptide, UniProt Q15418 683-735, looked up) peptide: QSQLSHQDLQLVKGAMAATYSALNSSKPTPQLKPIESSILAQRRVRKLPSTTL
81
